Protocol description: folding enthalpy; higher = less favourable; fluorescence melt of hairpins on a sequencing array, two-state fit
Condition label: sodium 0.088 M
Use -30 kcal/mol as the dividing line for folding enthalpy, with the line itself on the 1.0 side and lower values as 0.0.

Is folding enthalpy for GACGACGGAAACACCGTC ((((..(....)..)))) at or above -30 kcal/mol?
1.0

Next: GATCCATAGTTGGATC ((((((....))))))
0.0

Try the sequence GATCTCGGAAGAGATC ((((((....))))))
0.0

Lookup GCTTAACCGAAAGGTAGC (((..(((....))))))
1.0

Also need GGCTTCGAAAGAAGCGCC ((((((....)))..))) , thanks.
1.0

Then what about the sequence GTGCTTGGAAACAAACAC (((.(((....))).))) ?
1.0

// same read-out, input: GCTTGAACGAAAGTTAGC (((..(((....))))))
1.0

Quick one: GCCTAGGGAAACCCAGGC ((((.((....)).))))
0.0

Now give it for CGTTCGGAAACGAGAACG ((((((....)))..))) too.
1.0

What do you get for GATCCGCACTCGGATC ((((((....)))))) ?
0.0

Now consider GCGTTTAGACGC ((((....)))) .
1.0

Another sequence to check: GTAGCAGGAAACTACTAC ((((.((....)).))))
1.0

Moving on to GTAGTTGGAAACAACTAC (((((((....)))))))
0.0

# iterate: GAAGGTGGAAACACCTCC (.(((((....))))).)
1.0

Also need GTCCGACCGAAAGGTGAC (((..(((....)))))) , thanks.
1.0

# repeat for GCCGGGCGAAAGCTCTGC ((.(.((....)).).))
1.0

Would you mind doing GTGCTGCGAAAGCACCAC (((.(((....))).))) as well?
1.0

For GGCCCCGAAAGGGTGGCC ((((((....)))..))) then?
1.0

Subsequent entry: GGTGATCGAAAGATACC (((.(((....))))))
1.0

Quick one: CCCAAGAAATTGGG (((((....)))))
1.0

Now this one: GATCCCGGAAACGGGGTC ((.((((....)))).))
1.0

Try the sequence GGGATCGGAAACGGTTCC ((.(.((....)).).))
0.0

Here is the next sequence: GGTGCTGGAAACAGTACC (((.(((....))).)))
0.0

Record: GATCGTCTGCACGATC ((((((....))))))
0.0

Item: GATCCTTAACAGGATC ((((((....))))))
0.0

// same read-out, input: GATCAGGAAGCTGATC ((((((....))))))
0.0

// same read-out, input: GGCTTCGGAAACGAGGTC (.(.(((....))).).)
1.0

Another: GGGCTCGAAAGAGACCC ((((((....))).)))
1.0

Would you mind doing GTTGACGGAAACGTCGAC ((.((((....)))).)) as well?
0.0

Could you do the same for GTTACCGGAAACAGTAAC (((((.(....).))))) , please?
1.0

And for GATCTTTTAGAAGATC ((((((....)))))) ?
0.0

Field entry: GGGCCGGGAAACCGGTCC ((.((((....)))).))
0.0

Now try GATCCGACGAAAGTCATC (((..(((....)))))) .
1.0

One more sequence: GCGATCGAAAGATGTCGC ((((((....)))..)))
1.0

Please do the same for GTCTGTCGAAAGACGGAC (((.(((....))).))) as well.
0.0

Same question, GCGGTCGGAAACGACTGC ((.((((....)))).)) this time
0.0

What would you report for GTTCGCGAAAGCGAGAAC ((((((....)))..))) ?
1.0

What about GACCCCGAAAGGGCGTC ((((((....))).))) ?
0.0

What about this sequence? CGACCCGGAAACGGTTCG (((.(((....))).)))
0.0

What about this sequence? GCCCGGCGAAAGCAGAGC ((.(.((....)).).))
1.0

And then GTGAACGGAAACGTCCAC (((.(((....))).))) , what is it?
0.0

Quick one: GAGACACGAAAGTGCTC (((.(((....))))))
1.0

GCAGGCGAAAGCCCATGC ((((((....)))..))) ?
1.0

Moving on to GTACTCGAAAGAGTAC ((((((....))))))
0.0

Also GATCTTAGAAAAGATC ((((((....)))))) , if possible.
1.0

Also check GGACCCGAAAGGGAATCC ((((((....)))..)))
1.0

Same again, this time with GAACCCGAAAGGGTTTTC ((((((....)))..)))
1.0

Next record, please: GCGTCGGGAAACCGGTGC ((..(((....)))..))
1.0

Again, but for GTGTTTGGAAACAAATGC (..((((....))))..)
1.0

Entry source: the array DNA melting data of Ke et al. (doi:10.1101/2024.01.08.574731)
